Source listed as patent US20260070987A1.

Biological target: equine FcRn (large alpha subunit p51) / equine beta-2-microglobulin complex, biotinylated (equine) (UniProt P30441)
Assay: SPR (Biacore), pH 6
experimentalEndpoint: Kd (nM)
Use nM as the unit, but write only the number.

1) equine IgG1 M428H (antibody, part only; not given: variable domains, not shown: another chain or arm of the molecule) constant: ASTTAPKVFALAPGCGTTSDSTVALGCLVSGYFPEPVKVSWNSGSLTSGVHTFPSVLQSSGFYSLSSMVTVPASTWTSETYICNVVHAASNFKVDKRIEPIPDNHQKVCDMSKCPKCPAPELLGGPSVFIFPPNPKDTLMITRTPEVTCVVVDVSQENPDVKFNWYMDGVEVRTATTRPKEEQFNSTYRVVSVLRIQHQDWLSGKEFKCKVNNQALPQPIERTITKTKGRSQEPQVYVLAPHPDELSKSKVSVTCLVKDFYPPEINIEWQSNGQPELETKYSTTQAQQDSDGSYFLYSKLSVDRNRWQQGTTFTCGVHHEALHNHYTQKNVSKNPGK ... 33.1

For the next question, use this binder.
# binder equine IgG4 K311H (antibody, part only; not given: variable domains, not shown: another chain or arm of the molecule; small tags and cut ends) constant: ASTTAPKVFPLASHSAATSGSTVALGCLVSSYFPEPVTVSWNSGALTSGVHTFPSVLQSSGLYSLSSMVTVPASSLKSQTYICNVAHPASSTKVDKKIVIKECNGGCPAECLQVGPSVFIFPPKPKDVLMISRTPTVTCVVVDVGHDFPDVQFNWYVDGVETHTATTEPKQEQFNSTYRVVSVLPIQHHDWLSGKEFKCKVNNKALPAPVERTISKPTGQPREPQVYVLAPHRDELSKNKVSVTCLVKDFYPTDIDIEWKSNGQPEPETKYSTTPAQLDSDGSYFLYSKLTVETNRWQQGTTFTCAVMHEALHNHYTEKSVSKSPGK ; its Kd = 35.6
